Please provide measured EC50 for the entries that follow.
target.under.test: Metabotropic glutamate receptor 1 (Homo sapiens)
Sequence (Q13255 whole entry): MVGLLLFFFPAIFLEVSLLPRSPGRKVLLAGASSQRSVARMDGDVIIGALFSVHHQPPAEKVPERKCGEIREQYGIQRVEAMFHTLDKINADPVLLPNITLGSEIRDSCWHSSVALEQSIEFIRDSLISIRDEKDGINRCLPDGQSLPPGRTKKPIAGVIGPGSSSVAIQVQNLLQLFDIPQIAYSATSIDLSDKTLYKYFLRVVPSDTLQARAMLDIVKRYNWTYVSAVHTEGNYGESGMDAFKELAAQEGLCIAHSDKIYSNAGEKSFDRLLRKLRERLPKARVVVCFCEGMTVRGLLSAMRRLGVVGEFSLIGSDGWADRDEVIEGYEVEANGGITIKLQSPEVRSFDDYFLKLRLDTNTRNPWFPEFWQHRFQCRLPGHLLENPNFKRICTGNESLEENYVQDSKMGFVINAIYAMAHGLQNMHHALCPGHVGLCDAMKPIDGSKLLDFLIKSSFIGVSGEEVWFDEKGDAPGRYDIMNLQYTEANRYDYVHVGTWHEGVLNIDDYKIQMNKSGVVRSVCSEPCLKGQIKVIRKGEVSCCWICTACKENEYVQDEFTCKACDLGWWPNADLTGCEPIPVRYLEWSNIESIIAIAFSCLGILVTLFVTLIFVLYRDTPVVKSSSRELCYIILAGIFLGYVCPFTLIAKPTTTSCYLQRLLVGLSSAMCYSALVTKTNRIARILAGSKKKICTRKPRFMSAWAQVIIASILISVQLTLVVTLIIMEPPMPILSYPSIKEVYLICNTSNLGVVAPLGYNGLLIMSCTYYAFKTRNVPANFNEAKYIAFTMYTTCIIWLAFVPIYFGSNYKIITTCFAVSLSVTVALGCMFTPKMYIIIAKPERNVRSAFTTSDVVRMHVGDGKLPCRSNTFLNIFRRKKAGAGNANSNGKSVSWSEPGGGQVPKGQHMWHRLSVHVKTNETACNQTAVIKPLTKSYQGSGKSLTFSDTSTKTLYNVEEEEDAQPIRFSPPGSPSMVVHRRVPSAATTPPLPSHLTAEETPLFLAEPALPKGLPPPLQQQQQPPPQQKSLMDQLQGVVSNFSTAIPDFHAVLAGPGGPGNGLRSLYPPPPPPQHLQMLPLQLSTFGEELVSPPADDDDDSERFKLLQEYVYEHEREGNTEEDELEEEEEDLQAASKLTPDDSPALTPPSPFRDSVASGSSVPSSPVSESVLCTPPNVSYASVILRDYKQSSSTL
protocol: Positive allosteric modulation of human mGluR1 by calcium mobilization assay
Assay type: functional
condition.context: read-out: EC50
State just the number; it will be interpreted in nM.

EC50 recorded for this compound, `COc1cc(NC(=O)c2occc2C)ccc1N1C(=O)c2ccccc2C1=O` , is 46

The compound `Cc1ccoc1C(=O)Nc1ccc(N2C(=O)c3ccccc3C2=O)c(C(F)(F)F)c1` showed EC50 equal to 123

compound `Cc1ccoc1C(=O)Nc1ccc(N2C(=O)c3cccc(F)c3C2=O)c(F)c1` , EC50 observed: 35

Form: compound = `Cc1ccoc1C(=O)Nc1ccc(N2C(=O)c3cccc(F)c3C2=O)c2ccccc12` ; EC50 = 20

Kindly note the recorded EC50 for `Cc1ccoc1C(=O)Nc1ccc(N2C(=O)c3cccc(Cl)c3C2=O)cc1` , which is 29

Entry `Cc1ccoc1C(=O)Nc1ccc(N2C(=O)c3ccccc3C2=O)cc1Cl` ; EC50 = 29

The compound listed as `Cc1cc(NC(=O)c2occc2C)ccc1N1C(=O)c2cccc(Cl)c2C1=O` has a reported EC50 of 49

// field: EC50; key: `Cc1ccoc1C(=O)Nc1ccc(N2C(=O)c3cccc(F)c3C2=O)c(C(F)(F)F)c1` ; value = 155

Value of EC50 reported for the compound `Cc1ccoc1C(=O)Nc1cnc(N2C(=O)c3cccc(C)c3C2=O)nc1` is 751

# EC50 (compound: `Cc1ccoc1C(=O)Nc1ccc(N2C(=O)c3ccccc3C2=O)cc1` ) is 48

Short answer for `Cc1ccoc1C(=O)Nc1ccc(N2C(=O)c3cccc(C)c3C2=O)c(C(F)(F)F)c1` : EC50 was 530

EC50 reading for `Cc1ccoc1C(=O)Nc1ccc(N2C(=O)c3cccc(Cl)c3C2=O)nc1` : 35

Field EC50 (entry `Cc1ccoc1C(=O)Nc1ccc(N2C(=O)c3cccc(Cl)c3C2=O)c(C(F)(F)F)c1` ) reads 106

EC50 reported for this compound `Cc1ccoc1C(=O)Nc1ccc(N2C(=O)c3ccccc3C2=O)nc1` : 387

The compound listed as `COc1cc(NC(=O)c2occc2C)ccc1N1C(=O)c2cccc(F)c2C1=O` shows EC50 equal to 144

The recorded EC50 for entry `Cc1ccoc1C(=O)Nc1ccc(N2C(=O)c3ccccc3C2=O)cc1F` equals 13

Query `Cc1cc(NC(=O)c2occc2C)ccc1N1C(=O)c2ccccc2C1=O` yields EC50 of 89

Field EC50 (entry `Cc1cc(NC(=O)c2occc2C)ccc1N1C(=O)c2cccc(C)c2C1=O` ) reads 21

---

target.under.test: UniProt:Q13255
protocol: Positive allosteric modulation of human mGluR1 by calcium mobilization assay
Type: functional
condition.context: read-out: EC50
pEC50: −log10 of the molar value.
Answer No if pEC50 is under 7, and Yes if it is 7 or more.

Is pEC50 at least 7? Consider `Cc1ccoc1C(=O)Nc1ccc(N2C(=O)c3cccc(F)c3C2=O)nc1`
No

Can `COc1cc(NC(=O)c2occc2C)ccc1N1C(=O)c2cccc(C)c2C1=O` be said to have pEC50 at or above 7?
Yes

Does the compound `Cc1ccoc1C(=O)Nc1ccc(N2C(=O)c3cccc(Cl)c3C2=O)c(F)c1` have recorded pEC50 that is 7 or more?
Yes

Exam item: decide whether the reported pEC50 for `Cc1ccoc1C(=O)Nc1ccc(N2C(=O)c3cccc(C)c3C2=O)cc1` is at least 7.
Yes

Decide: pEC50 of `Cc1ccoc1C(=O)Nc1ccc(N2C(=O)c3ccccc3C2=O)c(F)c1` >= 7?
Yes

Is pEC50 for `Cc1ccoc1C(=O)Nc1ccc(N2C(=O)c3cccc(F)c3C2=O)cc1` at or above 7?
Yes

Entry `Cc1cc(NC(=O)c2occc2C)ccc1N1C(=O)c2cccc(F)c2C1=O` : is its pEC50 no less than 7?
Yes

Given the entry `Cc1ccoc1C(=O)Nc1ccc(N2C(=O)c3ccccc3C2=O)c2ccccc12` , answer whether its pEC50 meets or surpasses 7.
Yes

In plain terms: is recorded pEC50 at least 7 for `Cc1cc(N2C(=O)c3ccccc3C2=O)ccc1NC(=O)c1occc1C` ?
Yes

// inclusive: pEC50 at least 7? input: `Cc1ccoc1C(=O)Nc1cnc(N2C(=O)c3ccccc3C2=O)nc1`
No
